System: THRa homodimer (NR concentration 90 nM)
Assay: PBM binding z-score (relative to random genomic background probes); higher = stronger binding; sequences stand for … in GC…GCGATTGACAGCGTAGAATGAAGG
Value kind: PBM binding z-score
Answers are plain numbers.

As a guide, the following entries are already answered.
[
  {
    "Polymer sequence": "CTATGTAGGTTCAGGGGGTCATTCAGTTTGAAAG",
    "Tested on": "THRa homodimer (NR concentration 90 nM)",
    "Readout number": 2.11
  },
  {
    "Polymer sequence": "CCGAGTAAGTTACGAGGGGGCATTCAGTGCGAAT",
    "Tested on": "THRa homodimer (NR concentration 90 nM)",
    "Readout number": 0.139
  },
  {
    "Polymer sequence": "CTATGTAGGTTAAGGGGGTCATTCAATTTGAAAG",
    "Tested on": "THRa homodimer (NR concentration 90 nM)",
    "Readout number": 1.83
  }
]

Give PBM binding z-score for each listed item.
1. TCGAGGAGGTTACGGGGGCATTCAGGGATGAAGA
2. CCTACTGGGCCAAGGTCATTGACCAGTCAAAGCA
3. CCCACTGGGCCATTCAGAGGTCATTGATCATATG
4. CGAACTAGGTCACCAGGACAGTGAGGAGGTTGGA
5. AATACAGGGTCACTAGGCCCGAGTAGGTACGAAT
6. CAAACTAGGCCAAGGTCAAAGTCGGTTTGTGCCA
7. CCGAGTAGGTTACGAGTGGGCATTCAGTGCGAAT
8. GCTTACGGGTCAAAGGTTATAACATGAATAGAAT

Output line:
1.88
2.29
1.52
1.7
0.859
2.36
-0.579
0.296

Give measured PBM binding z-score for every item shown.
1. ATATGTAGGTTCCATCCGGGTCATTCAGGCTATG
2. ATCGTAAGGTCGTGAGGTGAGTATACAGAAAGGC
3. CCGAGTAGGTTACGAGGGGGCCTTCAGTGCGAAT
4. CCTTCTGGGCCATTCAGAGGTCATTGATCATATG
5. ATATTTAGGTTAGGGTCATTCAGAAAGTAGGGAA
6. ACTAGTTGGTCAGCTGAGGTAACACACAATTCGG
7. AAAATGAGGTTAAGATCAGGGAAACAGAATACAT
8. ATATGTAGGTTAGCGGGGGTCATTCAGACTAGGC

Output line:
1. 2.32
2. 2.95
3. 0.4
4. 1.51
5. 3.85
6. 1.99
7. 0.772
8. 2.75

Respectfully, I request PBM binding z-score for each entry included below.
1. CTTTACGGGTCAAGGTTATAGCACGGGTGGTACG
2. TCGAGTAGGTTACGGGGGGATTCAGGGATGAAGA

Output line:
1. 1.1
2. 1.85

Hello, I would appreciate it if you could give PBM binding z-score for each entry below.
1. CCAGACAGGTGAAAGGTAACTCCGTCTGGTACGC
2. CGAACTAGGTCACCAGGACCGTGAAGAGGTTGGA
3. CGAACTGGGTCACCAGGACAGTGAAGAGGTTGGA
4. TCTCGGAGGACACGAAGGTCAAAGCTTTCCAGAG
5. ACTAGCAGGCCAAGGGTGACTCAAGATTAGTCCG

Output line:
1: -0.16; 2: 1.07; 3: 0.811; 4: 1.44; 5: -0.521
